Biological target: Aminopeptidase B (Rattus norvegicus, UniProt O09175)
Sequence (O09175 whole entry): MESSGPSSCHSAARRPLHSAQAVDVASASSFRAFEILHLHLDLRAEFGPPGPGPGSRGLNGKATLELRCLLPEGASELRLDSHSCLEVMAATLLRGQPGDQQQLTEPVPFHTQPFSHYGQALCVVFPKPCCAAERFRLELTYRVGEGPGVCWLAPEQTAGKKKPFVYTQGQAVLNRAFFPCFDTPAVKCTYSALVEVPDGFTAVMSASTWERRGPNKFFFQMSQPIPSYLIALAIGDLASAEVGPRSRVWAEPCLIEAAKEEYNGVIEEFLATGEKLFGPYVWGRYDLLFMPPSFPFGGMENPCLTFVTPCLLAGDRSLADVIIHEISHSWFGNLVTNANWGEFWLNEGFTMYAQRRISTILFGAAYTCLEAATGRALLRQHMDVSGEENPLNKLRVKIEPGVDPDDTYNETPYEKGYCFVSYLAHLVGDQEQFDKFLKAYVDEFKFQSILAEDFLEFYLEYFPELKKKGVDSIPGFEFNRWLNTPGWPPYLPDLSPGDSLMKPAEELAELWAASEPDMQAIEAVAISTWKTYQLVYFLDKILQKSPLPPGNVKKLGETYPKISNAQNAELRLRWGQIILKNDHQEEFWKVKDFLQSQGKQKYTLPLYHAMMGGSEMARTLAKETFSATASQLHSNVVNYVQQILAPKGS
Experiment: Non-competitive inhibition of aminopeptidase B or arginyl aminopeptidase purified from rat liver; Ki value reporting the Kid
ASSAY_METRIC: pKi
Field pKi (float): negative decimal logarithm of the concentration in molar.

Problem: Requested read-out: pKi. Entry: CC(CC(=O)[C@@H](N)CCCCN)C(=O)NC(Cc1ccccc1)C(=O)O (stereo partly specified)
Solution: 5.55
